Quick list: Kd per entry.
study_target: T1, human pIgR extracellular domain (ECD) (human, UniProt P01833 19-638)
T1 construct: also called hpIgR ECD
T1 sequence (P01833 other isoform, or with tags, fused parts or gaps): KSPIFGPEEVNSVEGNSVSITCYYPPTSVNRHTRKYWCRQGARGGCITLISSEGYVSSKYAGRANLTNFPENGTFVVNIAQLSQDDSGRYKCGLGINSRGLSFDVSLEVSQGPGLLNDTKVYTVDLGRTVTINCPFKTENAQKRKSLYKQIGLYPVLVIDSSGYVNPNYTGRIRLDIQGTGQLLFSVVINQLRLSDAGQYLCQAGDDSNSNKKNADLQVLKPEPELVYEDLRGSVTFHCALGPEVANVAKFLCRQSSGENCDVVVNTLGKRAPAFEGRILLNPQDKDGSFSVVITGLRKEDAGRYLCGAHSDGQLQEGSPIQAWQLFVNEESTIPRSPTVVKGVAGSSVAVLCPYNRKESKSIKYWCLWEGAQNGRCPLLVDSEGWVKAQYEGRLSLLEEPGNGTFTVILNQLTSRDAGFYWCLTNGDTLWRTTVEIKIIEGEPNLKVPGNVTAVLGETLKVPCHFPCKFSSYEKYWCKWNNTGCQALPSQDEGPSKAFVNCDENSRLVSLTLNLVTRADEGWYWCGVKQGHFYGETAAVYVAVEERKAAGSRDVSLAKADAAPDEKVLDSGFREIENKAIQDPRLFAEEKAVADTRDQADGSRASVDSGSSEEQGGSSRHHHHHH
assay_name: BLI (Octet), VHH-mono-Fc and hpIgR ectodomain
Answer with the figure and its unit, nothing else.

Memo: VHH3-linker-mono-Fc protein (Fc fusion, made in CHO cells; also called VHH3-mono-Fc; hpIgR_021) QLQLVESGGGLVQPGGSLRLSCAASGSIFSINVMGWYRQAPGKQRELVARINGGGITHYAESVKGRFTISRDNAKNTVYLQMNSLKPEDTAAYYCKADVFGSSGYVETYWGQGTQVTVSSEPKTPKPQPQPQLQPQPNPTTESKSPKSPAPELLGGPSVFLFPPKPKDTLMISRTPEVTCVVVDVSHEDPEVKFNWYVDGVEVHNAKTKPREEQYNSTYRVVSVLTVLHQDWLNGKEYKCKVSNKALPAPIEKTISKAKGQPREPQVYTKPPSREEMTKNQVSLSCLVKGFYPSDIAVEWESNGQPENNYKTTVPVLDSDGSFRLASYLTVDKSRWQQGNVFSCSVMHEALHNHYTQKSLSLSPGK , reported Kd: 5 nM
